These measurements were taken from ChEMBL document CHEMBL1129312.

Recorded Log k', one value per entry.
assay: Lipophilicity index (RP-HPLC pH 7); assay type: physicochemical; conditions: buffer

// solved cases for Log k' follow
| Smiles Code | Result Type | Readout Value |
| --- | --- | --- |
| COCCOc1ccc(C[C@H](NC(=O)OC(C)(C)C)[C@H](O)CNC[C@@H](O)[C@H](Cc2ccccc2)NC(=O)OC(C)(C)C)cc1 | Log k' | 1.19 |
| CC(C)(C)OC(=O)N[C@@H](Cc1ccccc1)[C@H](O)CNC[C@@H](O)[C@H](Cc1ccc(COC(=O)N2CCOCC2)cc1)NC(=O)OC(C)(C)C | Log k' | 1.23 |

With those in mind, consider the next molecule.
Please report Log k' for the following molecule: `CC(C)(C)OC(=O)N[C@@H](Cc1ccccc1)[C@H](O)CNC[C@@H](O)[C@H](Cc1ccc(OCCCN2CCOCC2)cc1)NC(=O)OC(C)(C)C` 1.28
